MEASURED TARGET: SARS-CoV-2 Mac1 (Severe acute respiratory syndrome coronavirus 2)
ASSAY DETAILS: biochemical
TEST SETTINGS: read-out: %inhibition

SMILES NOTATION | UNIT ABBREVIATION | inhibition at 100 µM
CCC(=O)NCC[C@@H]1CCc2ccc3c(c21)CCO3 | % | 21
C[C@@H]1[C@H](O)[C@@H](C)/C=C/C=C/C=C/C=C/C=C/C=C/C=C/[C@H](O[C@@H]2O[C@H](C)[C@@H](O)[C@H](N)[C@@H]2O)C[C@@H]2O[C@](O)(C[C@@H](O)C[C@@H](O)[C@H](O)CC[C@@H](O)C[C@@H](O)CC(=O)O[C@H]1C)C[C@H](O)[C@H]2C(=O)O | % | 2.16
C[C@H](CCC(=O)O)[C@H]1CC[C@H]2[C@@H]3CC[C@@H]4C[C@H](O)CC[C@]4(C)[C@H]3CC[C@]12C | % | 0

* * *

MEASURED TARGET: SARS-CoV-2 Mac1 (Severe acute respiratory syndrome coronavirus 2, UniProt P0DTD1)
ASSAY DETAILS: biochemical
TEST SETTINGS: 100 µM; inhibitor
Where a name gives a salt, the structure may show the parent alone.
The label depends only on %inhibition: Criterion met if it is at least 7%, Criterion not met if it is smaller.

COMPOUND | LABEL VALUE
CN(CCOc1ccc(CC2SC(=O)NC2=O)cc1)c1ccccn1 (stereo not shown) [Rosiglitazone HCl] | Criterion not met
CO/N=C(\C(=O)N[C@@H]1C(=O)N2C(C(=O)O)=C(CSc3nc(=O)c(O)nn3C)CS[C@H]12)c1csc(N)n1 [Ceftriaxone Sodium] | Criterion met
CC(C)c1nc(N(C)S(C)(=O)=O)nc(-c2ccc(F)cc2)c1/C=C/[C@@H](O)C[C@@H](O)CC(=O)O [Rosuvastatin Calcium] | Criterion not met
O=C(O)/C=C/c1ccc(Cn2ccnc2)cc1 [Ozagrel HCl] | Criterion not met
OC[C@@H](O)[C@@H](O[C@@H]1O[C@H](CO)[C@H](O)[C@H](O)[C@H]1O)[C@H](O)[C@@H](O)CO [Lactitol] | Criterion not met
NC[C@H]1O[C@H](O[C@H]2[C@H](O)[C@@H](O[C@H]3O[C@H](CO)[C@@H](O)[C@H](N)[C@H]3O)[C@H](N)C[C@@H]2N)[C@H](N)C[C@@H]1O [Tobramycin sulfate] | Criterion met

* * *

Overview of reported inhibition at 100 µM across a group of molecules:
MEASURED TARGET: SARS-CoV-2 Mac1 (Severe acute respiratory syndrome coronavirus 2, UniProt P0DTD1)
ASSAY DETAILS: biochemical
TEST SETTINGS: read-out: %inhibition
Counter-ions that a name gives are not always drawn.

MOLECULE | inhibition at 100 µM (%)
C1CNCCNCCNCCN1 [Cyclen] | 0
O=c1oc2ccccc2c(O)c1Cc1c(O)c2ccccc2oc1=O [Dicoumarol] | 13.4
Oc1c(Cl)cc(Cl)c(Cl)c1Cc1c(O)c(Cl)cc(Cl)c1Cl [Hexachlorophene] | 0
CCN1CCN(C(=O)N[C@@H](C(=O)N[C@@H]2C(=O)N3C(C(=O)O)=C(CSc4nnnn4C)CS[C@H]23)c2ccc(O)cc2)C(=O)C1=O [Cefoperazone] | 0
C[C@@H](Oc1cc(-c2cnn(C3CCNCC3)c2)cnc1N)c1c(Cl)ccc(F)c1Cl [Crizotinib (PF-02341066)] | 6.7
CCc1oc2ccccc2c1C(=O)c1cc(Br)c(O)c(Br)c1 [Benzbromarone] | 6.57
Nc1ncn([C@H]2C[C@H](O)[C@@H](CO)O2)c(=O)n1 [Decitabine] | 0
O=C(O)c1cc(/N=N/c2ccc(S(=O)(=O)Nc3ccccn3)cc2)ccc1O [Sulfasalazine] | 0
O[C@@H](c1cc(C(F)(F)F)nc2c(C(F)(F)F)cccc12)[C@H]1CCCCN1 [Mefloquine HCl] | 0
NCCc1cc(O)c(O)cc1O [Oxidopamine (hydrobromide)] | 0
N=C(N)Nc1ccc(C(=O)Oc2ccc3cc(C(=N)N)ccc3c2)cc1 [Nafamostat Mesylate] | 0
N=C1CCCN1Cc1[nH]c(=O)[nH]c(=O)c1Cl [Tipiracil hydrochloride] | 0
Cc1ccnc(NS(=O)(=O)c2ccc(N)cc2)n1 [Sulfamerazine] | 0
CC(=O)OCC(=O)[C@@]1(O)CC[C@H]2[C@@H]3CCC4=CC(=O)C=C[C@]4(C)[C@H]3[C@@H](O)C[C@@]21C [Prednisolone Acetate] | 15.9
C=CCN1CCCC1CNC(=O)c1cc2nn[nH]c2cc1OC (stereo not drawn) [Alizapride HCl] | 0
FC(F)(F)c1ccc(/C=C/c2nc(COc3ccc(CCCCn4ccnn4)cc3)co2)cc1 [Mubritinib (TAK 165)] | 0
CN(C)CCOC(=O)COc1ccc(Cl)cc1 [Meclofenoxate (Centrophenoxine) HCl] | 16.9
CC(C)(C)C(O)/C=C/c1ccc2c(c1)OCO2 (stereo not drawn) [Stiripentol] | 12.5

* * *

Overview of reported %inhibition across a group of compounds:
MEASURED TARGET: SARS-CoV-2 Mac1 (Severe acute respiratory syndrome coronavirus 2)
ASSAY DETAILS: biochemical
TEST SETTINGS: 100 µM; inhibitor
Structures can show the parent of a compound that is named as a salt.

COMPOUND | MEASURED TARGET | %inhibition
CCOC(=O)C1=C[C@@H](OC(CC)CC)[C@H](NC(C)=O)[C@@H](N)C1 [Oseltamivir Phosphate] | SARS-CoV-2 Mac1 (Severe acute respiratory syndrome coronavirus 2) | 4.261%
COc1cc2nc(N3CCN(C(=O)C4CCCO4)CC3)nc(N)c2cc1OC (stereo not drawn) [Terazosin HCl] | SARS-CoV-2 Mac1 (Severe acute respiratory syndrome coronavirus 2) | 2.055%
COc1cc(CNC(=O)CCCC/C=C/C(C)C)ccc1O | SARS-CoV-2 Mac1 (Severe acute respiratory syndrome coronavirus 2) | 5.806%
N#CC[C@H](C1CCCC1)n1cc(-c2ncnc3[nH]ccc23)cn1 [S-Ruxolitinib (INCB018424)] | SARS-CoV-2 Mac1 (Severe acute respiratory syndrome coronavirus 2) | 18.93%
CC(C)(C)NC(=O)N[C@H](C(=O)N1C[C@H]2[C@@H]([C@H]1C(=O)NC(CC1CCC1)C(=O)C(N)=O)C2(C)C)C(C)(C)C (stereo partly drawn) | SARS-CoV-2 Mac1 (Severe acute respiratory syndrome coronavirus 2) | 2.103%
Cn1c(=O)cc(N2CCC[C@@H](N)C2)n(Cc2cc(F)ccc2C#N)c1=O [Trelagliptin] | SARS-CoV-2 Mac1 (Severe acute respiratory syndrome coronavirus 2) | 0%
CCCCc1nc(Cl)c(CO)n1Cc1ccc(-c2ccccc2-c2nnn[nH]2)cc1 [Losartan] | SARS-CoV-2 Mac1 (Severe acute respiratory syndrome coronavirus 2) | 18.38%
COc1cc2c(cc1OC)C(=O)C(CC1CCN(Cc3ccccc3)CC1)C2 (stereo not drawn) [Donepezil] | SARS-CoV-2 Mac1 (Severe acute respiratory syndrome coronavirus 2) | 5.95%
CCn1cc(C(=O)O)c(=O)c2cc(F)c(N3CCNCC3)nc21 [Enoxacin] | SARS-CoV-2 Mac1 (Severe acute respiratory syndrome coronavirus 2) | 29.69%
COc1ccnc(C[S+]([O-])c2nc3cc(OC(F)F)ccc3[nH]2)c1OC (stereo not drawn) [Pantoprazole] | SARS-CoV-2 Mac1 (Severe acute respiratory syndrome coronavirus 2) | 6.936%
Cc1ccc(Nc2nccc(N(C)c3ccc4c(C)n(C)nc4c3)n2)cc1S(N)(=O)=O [Pazopanib] | SARS-CoV-2 Mac1 (Severe acute respiratory syndrome coronavirus 2) | 12.94%
CC[C@H]1OC(=O)[C@H](C)[C@@H](O[C@H]2C[C@@](C)(OC)[C@@H](O)[C@H](C)O2)[C@H](C)[C@@H](O[C@@H]2O[C@H](C)C[C@H](N(C)C)[C@H]2O)[C@](C)(O)C[C@@H](C)C(=O)[C@H](C)[C@@H](O)[C@]1(C)O [Erythromycin thiocyanate] | SARS-CoV-2 Mac1 (Severe acute respiratory syndrome coronavirus 2) | 1.029%
C#Cc1cccc(Nc2ncnc3cc(OCCOC)c(OCCOC)cc23)c1 [Erlotinib HCl (OSI-744)] | SARS-CoV-2 Mac1 (Severe acute respiratory syndrome coronavirus 2) | 12.32%
COc1cc(Nc2ncc(F)c(Nc3ccc4c(n3)N(COP(=O)(O)O)C(=O)C(C)(C)O4)n2)cc(OC)c1OC [Fostamatinib (R788)] | SARS-CoV-2 Mac1 (Severe acute respiratory syndrome coronavirus 2) | 0%
Cn1c(=O)cc(N2CCC[C@@H](N)C2)n(Cc2cc(F)ccc2C#N)c1=O [Trelagliptin succinate] | SARS-CoV-2 Mac1 (Severe acute respiratory syndrome coronavirus 2) | 24.59%

* * *

Overview of reported inhibition at 100 µM across a group of compounds:
MEASURED TARGET: SARS-CoV-2 Mac1 (Severe acute respiratory syndrome coronavirus 2)
ASSAY DETAILS: biochemical
TEST SETTINGS: read-out: %inhibition
Structures can show the parent of a compound that is named as a salt.
OBSERVATION TYPE: inhibition at 100 µM (%)

COMPOUND | OBSERVATION TYPE | UNIT ABBREVIATION | EXPERIMENTAL RESULT
CCCOc1ccc(C(=O)OCCN(CC)CC)cc1N [Proparacaine HCl] | inhibition at 100 µM | % | 13
CN1CCN(CCOc2cc(OC3CCOCC3)c3c(Nc4c(Cl)ccc5c4OCO5)ncnc3c2)CC1 [Saracatinib (AZD0530)] | inhibition at 100 µM | % | 32.3
CC(CCc1ccccc1)NCC(O)c1ccc(O)c(C(N)=O)c1 (stereo not drawn) [Labetalol HCl] | inhibition at 100 µM | % | 0
O=C(O)c1cc(=O)[nH]c(=O)[nH]1 [Orotic acid (6-Carboxyuracil)] | inhibition at 100 µM | % | 0
C[C@@H]1C[C@H]2[C@@H]3C[C@H](F)C4=CC(=O)C=C[C@]4(C)[C@@]3(F)[C@@H](O)C[C@]2(C)[C@@]1(O)C(=O)CO [Flumethasone] | inhibition at 100 µM | % | 28.1
CC[C@H]1OC(=O)C[C@@H](O)[C@H](C)[C@@H](O[C@@H]2O[C@H](C)[C@@H](O[C@H]3C[C@@](C)(O)[C@@H](O)[C@H](C)O3)[C@H](N(C)C)[C@H]2O)[C@@H](CC=O)C[C@@H](C)C(=O)/C=C/C(C)=C/[C@@H]1CO[C@@H]1O[C@H](C)[C@@H](O)[C@@H](OC)[C@H]1OC [Tylosin tartrate] | inhibition at 100 µM | % | 0
